Just for reference, PubChem BioAssay (NCI) is where these values come from.

In this section we review reported growth values for a set of compounds.
Test system: RXF 393 renal
Test: NCI-60 one-dose screen, 48 h (100 = growth as untreated, 0 = no growth, -100 = all killed)
Details: 10 µM unless noted
About 83,000 compounds went through this panel and 20% of them were active in at least one assay; those are over-represented in the sample as a whole.
Number in %, nothing else.

Solved cases below.
COMPOUND: Cc1nccc2c3ccc(OCc4cn(-c5ccccc5)nn4)cc3n(CCCc3ccccc3)c12
READOUT: growth
RECORDED MEASUREMENT: 69.7
--
COMPOUND: CCOC(=O)c1sc(/N=C2\NC(=O)/C(=C/c3ccc(N4CCN(C)CC4)cc3)S2)nc1C
READOUT: growth
RECORDED MEASUREMENT: 112

Inquiry: Name the reported growth value associated with the compound C=CCn1c(SCC(=O)Nc2ccc(C(=O)/C=C/c3ccc(Cl)cc3)cc2)nnc1-c1cc(OC)c(OC)c(OC)c1
Reply text: 90.8

Inquiry: Name the reported growth value associated with the compound COc1cc(C(C)c2ccc3c(ccn3C)c2)cc(OC)c1OC (stereo not given)
Reply text: 53.1

Inquiry: Name the reported growth value associated with the compound COc1cc(-c2csc(NC(=O)Nc3ccc(C(F)(F)F)cc3)n2)cc(OC)c1OC
Reply text: -4.21
